Where these numbers come from: PubChem BioAssay (Tox21)

test: qHTS assay to identify small molecule antagonists of the retinoid acid receptor (RAR) signaling pathway - cell viability counter screen (AID 1159551); conditions: C3RL4 cells viability, ATP luminescence (CellTiter-Glo), 6 h; series mostly up to 92.4 µM; also: nearly all actives have a fitted effect of over 35% in size
Inconclusive results are not listed. The source made the active and inactive calls. Calls follow the shape of the dose curve; as a rule, active = well fitted cell-killing curve with a large enough effect in the repeat runs; inconclusive = weak or mixed curves, or effect the other way; inactive = flat fitted curve, though single readings scatter.
Use one of these outcomes when replying: active, inactive

Observe how each entry below is paired with its result.
# compound, assigned-label
measured = [
    ("OC(c1ccccc1)(c1ccccc1)C1CCNCC1", "inactive"),
    ("CNC(=O)Oc1cccc(C(C)C)c1", "inactive"),
    ("O=[N+]([O-])c1cccc2cccnc12", "inactive"),
    ("COC(=O)C(c1ccccc1)C1CCCCN1 (stereo not given)", "inactive"),
    ("C=CCC1=C(C)[C@@H](OC(=O)[C@@H]2[C@@H](C=C(C)C)C2(C)C)CC1=O", "active"),
    ("C[C@]1(O)CC[C@H]2[C@@H]3CCC4=CC(=O)CC[C@]4(C)[C@@]3(F)[C@@H](O)C[C@@]21C", "inactive"),
    ("CCS(=O)(=O)C(C)(C)S(=O)(=O)CC", "inactive"),
    ("N#CCBr", "inactive"),
]

I'd appreciate the recorded outcome for CC(C)CC#N from this test.
inactive

Give the logged outcome of this assay for the following compound: CCC#N
inactive

What was the test verdict on CCOC(=O)C1(c2ccccc2)CCN(CCc2ccc(N)cc2)CC1 ?
inactive

In this assay, the call recorded for Nc1n[nH]c(N)n1 was what?
inactive

Hi team, can someone confirm the assay call for Cc1ncc2n1-c1ccc(Cl)cc1C(c1ccccc1F)=NC2 ?
inactive

Record request — test call for CCCSC(=O)N(CCC)CCC
inactive

Recorded test call requested for CCCCOC(=O)[C@@H](C)Oc1ccc(Oc2ccc(C#N)cc2F)cc1
inactive

Name the outcome recorded for Cc1cc(C)nc(Nc2ccccc2)n1 in the assay.
inactive

Outcome logged for COC(=O)COc1ccc(Cl)cc1Cl in this assay:
inactive

Which outcome did this test record for the compound CCOC(=O)/C=C(C)/C=C/C[C@@H](C)CCCC(C)C ?
inactive

---

assay: qHTS RealTime-Glo MT Cell Viability Assay in HEK293 cells - 8 hour (AID 1224887); details: RealTime-Glo luminescence; series mostly up to 76.8 µM; also: top concentration of the series differs between compounds; nearly all actives have a fitted effect of over 50% in size
Inconclusive results are not listed. The source made the active and inactive calls. Calls follow the shape of the dose curve; as a rule, active = well fitted cell-killing curve with a large enough effect in the repeat runs; inconclusive = weak or mixed curves, or effect the other way; inactive = flat fitted curve, though single readings scatter.
readout-label: outcome

As a guide, the following entries are already answered.
# molecule, outcome
records = [
    ("CCC/C(=N\\OCC)C1=C(O)CC(CC(C)SCC)CC1=O (stereo not drawn)", "inactive"),
    ("CC1CCC(=O)O1 (stereo not drawn)", "inactive"),
    ("CCOC(=O)CP(=O)(OCC)OCC", "inactive"),
    ("CC(C)(C)C(=O)C(Oc1ccc(Cl)cc1)n1cncn1 (stereo not drawn)", "inactive"),
    ("CCC(C)n1c(=O)[nH]c(C)c(Br)c1=O (stereo not drawn)", "inactive"),
    ("COCC(=O)N(c1c(C)cccc1C)N1CCOC1=O", "inactive"),
    ("Nc1c(Br)cc([N+](=O)[O-])cc1[N+](=O)[O-]", "inactive"),
    ("O=C1OC(c2ccc(O)c(S(=O)(=O)O)c2)(c2ccc(O)c(S(=O)(=O)O)c2)c2c(Br)c(Br)c(Br)c(Br)c21", "inactive"),
]

Give a short answer stating reported outcome for O=NN1CCN(N=O)CC1 .
inactive

Please give measured outcome of the following entry: O=S(=O)(O)C(F)(F)C(F)(F)C(F)(F)C(F)(F)C(F)(F)C(F)(F)F
inactive

Retrieve outcome measured for CCS(=O)(=O)CCSP(=O)(OC)OC and print it.
inactive

Please supply the value of reported outcome for the item C[C@]1(O)CC[C@H]2[C@@H]3CCC4=CC(=O)CC[C@]4(C)[C@@]3(F)[C@@H](O)C[C@@]21C
inactive

Recall and state the measured outcome for O=[N+]([O-])c1cccc(O)c1 .
inactive

Dear colleague, please send me the reported outcome for C=C(C)[C@@H]1CC=C(C=O)CC1 when you can.
inactive

Note down outcome recorded for CCOP(=S)(OCC)SCSP(=S)(OCC)OCC
inactive

Answer with the recorded outcome of CC(C(O)c1ccccc1)N(C)C/C=C/c1ccccc1 (stereo not drawn) only.
inactive

Fill in reported outcome for this entry: N#CCNCC#N
inactive

Determine its reported outcome: O=C1OC(=O)C2C1C1(Cl)C(Cl)=C(Cl)C2(Cl)C1(Cl)Cl (stereo not drawn)
inactive

---

target: Nuclear receptor subfamily 1 group I member 2 (Homo sapiens) (UniProt O75469); experiment: Human pregnane X receptor (PXR) small molecule agonists, qHTS assay (AID 1346982); conditions: PXR-Luc HepG2, CYP3A4 luciferase reporter, 24 h; series mostly up to 92.4 µM; also: nearly all actives have a fitted effect of over 35% in size
Sequence (O75469 whole entry, looked up): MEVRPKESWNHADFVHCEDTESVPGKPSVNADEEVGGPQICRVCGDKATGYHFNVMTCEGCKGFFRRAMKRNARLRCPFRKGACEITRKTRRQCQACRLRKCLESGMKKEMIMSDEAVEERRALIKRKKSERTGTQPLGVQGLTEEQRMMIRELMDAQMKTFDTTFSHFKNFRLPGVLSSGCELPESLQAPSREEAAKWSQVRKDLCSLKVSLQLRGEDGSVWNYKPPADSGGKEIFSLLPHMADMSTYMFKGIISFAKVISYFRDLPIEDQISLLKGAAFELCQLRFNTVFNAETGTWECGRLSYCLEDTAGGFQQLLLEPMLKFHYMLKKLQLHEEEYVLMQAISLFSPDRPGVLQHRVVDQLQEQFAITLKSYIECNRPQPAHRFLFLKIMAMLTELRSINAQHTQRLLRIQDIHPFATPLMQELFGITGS
Inconclusive results are not listed. The source made the active and inactive calls. Calls follow the shape of the dose curve; as a rule, active = well fitted activation curve with a large enough effect in the repeat runs; inconclusive = weak or mixed curves; inactive = no such curve, though single readings can be large or run the other way.
Choose the fitting class; nothing outside 1.0 (active), 0.0 (inactive) is accepted.

Field: example entries. Status: answers known.
# molecule, assigned-label
rows = [
    ("COC(C)(C)C", 0.0),
    ("CCCCC(=O)Cl", 0.0),
    ("CCCCP(CCCC)CCCC", 0.0),
    ("OC(c1ccccc1)(c1ccccc1)C1CCNCC1", 0.0),
    ("Oc1c(Cl)cccc1Cl", 0.0),
]

Given CCC(Cl)[N+](=O)[O-] (stereo not drawn) , state the outcome it received in this test.
0.0

# fetch the recorded call for CCN(CC)C(=O)[C@@H]1C=C2c3cccc4[nH]cc(c34)C[C@H]2N(C)C1 here
1.0

Outcome logged for N#CCCC#N in this assay:
0.0

Please state the recorded outcome for this molecule: CC(C1CC1)C(O)(Cn1cncn1)c1ccc(Cl)cc1 (stereo not drawn)
1.0

Look up the recorded call for Cc1cnc[nH]1 in this test.
0.0

Assay result, entry OCCSCSCCO — outcome?
0.0

How did this test come out for O=C(CCCN1CCC(n2c(=O)[nH]c3ccccc32)CC1)c1ccc(F)cc1 ?
1.0

Kindly provide the recorded test outcome for the following molecule: Fc1cc(Br)ccc1CBr
0.0

Each molecule tested received a call. Report the one for CCOP(=S)(Oc1cnc(C(C)(C)C)nc1)OC(C)C (stereo not drawn) .
1.0

Outcome logged for NC(=O)O in this assay:
0.0

How was C=CCC1=C(C)[C@@H](OC(=O)[C@@H]2[C@@H](C=C(C)C)C2(C)C)CC1=O classified in this test?
1.0

Just curious, what result did CC(Oc1ccc(Oc2ncc(C(F)(F)F)cc2Cl)cc1)C(=O)O (stereo not drawn) get here?
0.0

Could you kindly confirm the outcome this assay logged for CC(C)(C)C(=O)C(Oc1ccc(Cl)cc1)n1cncn1 (stereo not drawn) ?
1.0

---

experiment: qHTS assay to identify small molecule antagonists of the thyroid receptor (TR) signaling pathway - cell viability counter screen (AID 743064); conditions: GH3.TRE-Luc viability, CellTiter-Fluor, 24 h; series mostly up to 70.3 µM; also: nearly all actives have a fitted effect of over 50% in size
Results filed as inconclusive are left out. Calls of active or inactive are those of the source. Calls follow the shape of the dose curve; as a rule, active = well fitted cell-killing curve with a large enough effect in the repeat runs; inconclusive = weak or mixed curves, or effect the other way; inactive = no such curve, though single readings can be large or run the other way.
Please reply with one of these outcomes: active, inactive

# molecule, assigned-label
rows = [
    ("N#CC(CCc1ccc(Cl)cc1)(Cn1cncn1)c1ccccc1 (configuration not stated)", "active"),
    ("CCCSC(=O)Cl", "inactive"),
    ("CCN(CC)CCOC(=O)C(C)(c1ccccc1)c1ccccc1", "active"),
]

Would you mind telling me which call this test gave CC(C)(C)C(=O)C(Oc1ccc(Cl)cc1)n1cncn1 (configuration not stated) ?
inactive

Give the logged outcome of this assay for the following molecule: ClCCOCOCCCl
inactive

Short answer needed: outcome of this test for ClCC(Cl)Cl ?
inactive

Could you please tell me the result logged for CCCCCCI in this assay?
inactive

---

molecular target: Nuclear receptor ROR-gamma (Homo sapiens) (UniProt P51449); experiment: qHTS assay to identify small molecule antagonists of the retinoid-related orphan receptor gamma (ROR-gamma) signaling pathway (AID 1159521; also: nearly all actives have a fitted effect of over 50% in size); conditions: Tet-on RORgamma CHO cells, RORE-luciferase, 16 h; series mostly up to 92.4 µM
Inconclusive results are not listed. Active and inactive are the calls of the source. Calls come from the whole dose curve; as a rule, active = well fitted inhibition curve with a large enough effect in the repeat runs; inconclusive = weak or mixed curves, or effect the other way; inactive = no such curve, though single readings can be large or run the other way.
One label from this list, please: YES (active), NO (inactive)

# compound, experimental-system, assigned-label
rows = [
    ("N#CC(CCc1ccc(Cl)cc1)(Cn1cncn1)c1ccccc1 (stereo unspecified)", "Nuclear receptor ROR-gamma (Homo sapiens) (UniProt P51449)", "YES"),
    ("O=C(N[C@H]1CN2CCC1CC2)c1cc2ccoc2cn1", "Nuclear receptor ROR-gamma (Homo sapiens) (UniProt P51449)", "NO"),
]

Outcome logged for [As]#[In] in this assay:
NO

For CCOC(=O)N(C)C(=O)CSP(=S)(OCC)OCC , which call appears in the assay record?
NO

Which outcome did this test record for the compound N#CCBr ?
NO

Could you check what this test reported for CN/C(=N\[N+](=O)[O-])NCC1CCOC1 (stereo unspecified) ?
NO

---

biological target: Nuclear receptor subfamily 1 group I member 2 (Homo sapiens) (UniProt O75469); assay: Human pregnane X receptor (PXR) small molecule agonists, qHTS assay (AID 1346982); conditions: PXR-Luc HepG2, CYP3A4 luciferase reporter, 24 h; series mostly up to 92.4 µM; also: nearly all actives have a fitted effect of over 35% in size
Results filed as inconclusive are left out. Calls of active or inactive are those of the source. Calls come from the whole dose curve; as a rule, active = well fitted activation curve with a large enough effect in the repeat runs; inconclusive = weak or mixed curves; inactive = no such curve, though single readings can be large or run the other way.
Your reply should match one of these outcome classes. class 1 (active), class 0 (inactive)

As a guide, the following entries are already answered.
# molecule, assigned-label
rows = [
    ("Cc1cc(C)c(C(=O)P(=O)(C(=O)c2c(C)cc(C)cc2C)c2ccccc2)c(C)c1", "class 1"),
    ("CCC(=O)c1ccccc1", "class 0"),
    ("c1coc(-c2nc3ccccc3[nH]2)c1", "class 1"),
    ("CCCCc1ccc(O)cc1", "class 0"),
    ("CCOC(=O)C1(c2ccccc2)CCN(CCc2ccc(N)cc2)CC1", "class 1"),
    ("CCOP(=S)(OCC)Oc1cc(-c2ccccc2)on1", "class 1"),
    ("CCCCCCI", "class 0"),
    ("N#CCBr", "class 0"),
]

Name the outcome recorded for CC(C)(C)NCC(O)c1cc(Cl)c(N)c(Cl)c1 (configuration not stated) in the assay.
class 0

Test call for this molecule, please: Cc1ncc(CNC(=O)N(CCCl)N=O)c(N)n1
class 0

Record lookup: outcome of this test for CCN(CC)C(C)C(=O)c1ccccc1 (configuration not stated) ?
class 0

What was the test verdict on O=C(N[C@H]1CN2CCC1CC2)c1cc2ccoc2cn1 ?
class 0

Lab log entry: CCC1(c2ccccc2)C(=O)N=C(O)NC1=O (configuration not stated) — outcome as called in the assay?
class 1
